Molecular target: Gastrin/cholecystokinin type B receptor (Homo sapiens)
Sequence (P32239 whole entry): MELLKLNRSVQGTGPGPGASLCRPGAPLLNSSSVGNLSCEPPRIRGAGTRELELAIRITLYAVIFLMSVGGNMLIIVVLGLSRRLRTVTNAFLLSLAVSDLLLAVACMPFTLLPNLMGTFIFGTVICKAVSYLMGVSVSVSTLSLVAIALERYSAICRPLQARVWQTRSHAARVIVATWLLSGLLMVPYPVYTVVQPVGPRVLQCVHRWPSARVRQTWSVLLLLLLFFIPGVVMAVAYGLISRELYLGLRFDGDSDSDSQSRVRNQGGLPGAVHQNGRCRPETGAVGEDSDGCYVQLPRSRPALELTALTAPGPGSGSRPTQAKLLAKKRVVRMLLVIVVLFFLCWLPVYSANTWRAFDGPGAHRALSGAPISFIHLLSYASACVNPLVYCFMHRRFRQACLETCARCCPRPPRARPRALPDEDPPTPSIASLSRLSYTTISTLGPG
Experiment: Displacement of CCK-8 from human Cholecystokinin type B receptor expressing CHO cell membranes
Parameter: IC50 (µM)

Mol: CC(=O)N[C@@H](Cc1c[nH]c2ccccc12)C(=O)N[C@@H](CCCCNC(=O)Nc1ccccc1C)C(=O)N[C@@H](CC(=O)O)C(=O)N[C@@H](Cc1ccc(C)cc1)C(N)=O
Test system: Gastrin/cholecystokinin type B receptor (Homo sapiens)
Parameter: IC50
Value observed: 5.01
--
Mol: CC(=O)N[C@@H](Cc1c[nH]c2ccccc12)C(=O)N[C@@H](Cc1ccc(NC(=O)Nc2ccccc2Cl)cc1)C(=O)N[C@@H](CC(=O)O)C(=O)N[C@@H](Cc1ccc(C)cc1)C(N)=O
Test system: Gastrin/cholecystokinin type B receptor (Homo sapiens)
Parameter: IC50
Value observed: 63.1
--
Mol: CC(=O)N[C@@H](Cc1c[nH]c2ccccc12)C(=O)N[C@@H](Cc1ccc(NC(=O)Nc2ccccc2C)cc1)C(=O)N[C@@H](CC(=O)O)C(=O)N[C@@H](Cc1ccc(C)cc1)C(N)=O
Test system: Gastrin/cholecystokinin type B receptor (Homo sapiens)
Parameter: IC50
Value observed: 100

* * *

Biological target: Cholecystokinin receptor type A (Homo sapiens, UniProt P32238)
Sequence (P32238 whole entry): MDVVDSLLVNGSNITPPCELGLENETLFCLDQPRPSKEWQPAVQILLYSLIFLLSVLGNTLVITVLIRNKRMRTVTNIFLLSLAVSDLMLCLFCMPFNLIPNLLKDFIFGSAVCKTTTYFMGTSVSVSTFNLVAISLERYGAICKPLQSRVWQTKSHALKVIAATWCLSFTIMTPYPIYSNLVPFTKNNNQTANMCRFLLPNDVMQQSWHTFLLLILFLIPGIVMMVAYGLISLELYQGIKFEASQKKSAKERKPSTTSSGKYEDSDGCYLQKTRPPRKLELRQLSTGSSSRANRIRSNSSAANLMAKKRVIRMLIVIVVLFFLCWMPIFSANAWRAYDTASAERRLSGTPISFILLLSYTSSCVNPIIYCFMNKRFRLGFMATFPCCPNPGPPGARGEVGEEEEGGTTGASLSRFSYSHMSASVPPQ
Assay: Displacement of CCK-8 from CHO cell membranes expressing human Cholecystokinin type A receptor
Catalogue of IC50 values

Mol: CC(=O)N[C@@H](Cc1c[nH]c2ccccc12)C(=O)N[C@@H](Cc1ccc(NC(=O)Nc2ccccc2Cl)cc1)C(=O)N[C@@H](CC(=O)O)C(=O)N[C@@H](Cc1ccc(C)cc1)C(N)=O
IC50 / nM: 100

Mol: CC(=O)N[C@@H](Cc1c[nH]c2ccccc12)C(=O)N[C@@H](CCCCNC(=O)Nc1ccccc1C)C(=O)N[C@@H](CC(=O)O)C(=O)N[C@@H](Cc1ccc(C)cc1)C(N)=O
IC50 / nM: 20

Mol: Cc1cccc(NC(=O)N[C@@H]2N=C(c3ccccc3)c3ccccc3N(C)C2=O)c1
IC50 / nM: 158

Mol: CC(=O)N[C@@H](Cc1c[nH]c2ccccc12)C(=O)N[C@@H](Cc1ccc(NC(=O)Nc2ccccc2C)cc1)C(=O)N[C@@H](CC(=O)O)C(=O)N[C@@H](Cc1ccc(C)cc1)C(N)=O
IC50 / nM: 31.6
